Test system: HCV replication
Assay: HCV replicon assay (luciferase) in ET (Huh-lucubineo-ET) cell line
Type: cell-based
Details: Hepatitis C virus, tested at 5 μM; ET replicon cells; luciferase activity measured 48-72 hours later; relative to no compound control
Catalogue of compounds with associated inhibition at 5 µM
Only the number, expressed in %, is required.

O=C(NC1CC1)c1ccc(-c2csc(NC(=O)[C@@H]3CS[C@H](c4cccnc4)N3C(=O)OCc3ccccc3)n2)cc1 [Compound 7028] ... 100

Find the recorded inhibition at 5 µM belonging to Cn1ccnc1C(=O)N1C(C2CCOCC2)SC[C@H]1C(=O)Nc1nc(-c2ccc(C(=O)NC3CC3)cc2)cs1 (stereo partly shown) [Compound 7092] and report it.
89.4

Tell me the measured inhibition at 5 µM of O=C(Cc1ccc(NC(=O)[C@@H]2CSC(c3ccncc3)N2C(=O)OCc2ccccc2)cc1)Nc1ccccc1 (stereo partly shown) [Compound 7126] , please.
93.8

State the recorded inhibition at 5 µM for this entry: O=C(Cc1ccc(NC(=O)[C@@H]2CSC(c3ccncc3)N2C(=O)OCc2ccccc2)cc1)NC1CC1 (stereo partly shown) [Compound 7068]
6
